Exercise: for every item that follows, state its recorded Plant response rating, Foxtail, Giant.
System: foxtail, giant (giant foxtail, Setaria faberii)
Test: Test C greenhouse herbicide test, pre- and postemergence
Format: in vivo
Settings: Postemergence, 31 g ai/ha; scale 0 to 100 (0 no effect, 100 complete control)
Numbers only.

Reference set (4 entries):
[[record]]
compound = "Cc1ccc2ccccc2c1-c1c(OC(=O)N2CCOCC2)c(Br)nn(C)c1=O [Compound 176]"
tgt = "foxtail, giant (giant foxtail, Setaria faberii)"
test_value = 5

[[record]]
compound = "CC(=O)Oc1c(C)nn(C)c(=O)c1-c1c([N+](=O)[O-])ccc2ccccc12 [Compound 164]"
tgt = "foxtail, giant (giant foxtail, Setaria faberii)"
test_value = 5

[[record]]
compound = "CSCC(=O)Oc1c(C)nn(C)c(=O)c1-c1cccc2ccccc12 [Compound 171]"
tgt = "foxtail, giant (giant foxtail, Setaria faberii)"
test_value = 10

[[record]]
compound = "COC(=O)Oc1c(C)nn(C)c(=O)c1-c1c([N+](=O)[O-])ccc2ccccc12 [Compound 162]"
tgt = "foxtail, giant (giant foxtail, Setaria faberii)"
test_value = 5


For the next question, use this compound.
Item under review: Cc1nn(C)c(=O)c(-c2ccc(F)c3ccccc23)c1OC(=O)CC(F)(F)F [Compound 123] . Reported Plant response rating, Foxtail, Giant?
20

* * *

System: chamomile (scentless chamomile, Matricaria inodora)
Assay: Test D controlled growth environment herbicide test, pre- and postemergence
Format: in vivo
Conditions: Preemergence, 31 g ai/ha
property_measured: Plant response rating (scale of 0 to 100), Chamomile
Numbers only.

Past entries and their recorded results:
[[record]]
chemical_smiles = "CCC(=O)Oc1c(C)nn(C)c(=O)c1-c1c(C)sc2ccc(C)cc12"
test_value = 95

[[record]]
chemical_smiles = "CC(=O)Oc1c(C)nn(C)c(=O)c1-c1c(C)sc2c(C)cc(C)cc12"
test_value = 100

[[record]]
chemical_smiles = "Cc1ccc(-c2c(O)c(Br)nn(C)c2=O)c2ccccc12"
test_value = 60

[[record]]
chemical_smiles = "Cc1ccc2sc(C)c(-c3c(O)c(C)nn(C)c3=O)c2c1"
test_value = 95


Attention now shifts to the item below.
Endpoint output: Plant response rating (scale of 0 to 100), Chamomile of `CC(=O)Oc1c(C)nn(C)c(=O)c1-c1ccc(F)c2ccccc12` . Value?
100

* * *

Tested on: barnyardgrass (Echinochloa crus-galli)
Assay: Test B flooded paddy test
Format: in vivo
Conditions: 250 g ai/ha, Flood; visual rating on scale of 0 to 100 where 0 is no effect and 100 is complete control; 13 to 15 d after treatment
Provide the recorded Plant response rating, Barnyardgrass for the entries that follow.

[[record]]
chemical_smiles = "Cc1cc(C)c2ccccc2c1-c1c(O)cnn(C)c1=O"
test_value = 0

[[record]]
chemical_smiles = "CCOC(=O)Oc1c(C)nn(C)c(=O)c1-c1c(C)sc2c(C)cc(C)cc12"
test_value = 60

[[record]]
chemical_smiles = "Cc1cc(C)c2sc(C)c(-c3c(OCC#N)c(C)nn(C)c3=O)c2c1"
test_value = 0

[[record]]
chemical_smiles = "Cc1ccc2ccccc2c1-c1c(O)cnn(C)c1=O"
test_value = 0

[[record]]
chemical_smiles = "Cc1cc(C)c2ccccc2c1-c1c(OS(C)(=O)=O)c(C)nn(C)c1=O"
test_value = 50

[[record]]
chemical_smiles = "CCC(=O)Oc1c(C)nn(C)c(=O)c1-c1ccc(Br)c2ccccc12"
test_value = 0

[[record]]
chemical_smiles = "COc1nn(C)c(=O)c(-c2c(C)ccc3ccccc23)c1OC(=O)OC(C)C"
test_value = 0

[[record]]
chemical_smiles = "Cc1nn(C)c(=O)c(-c2cccc3ccccc23)c1OC(=O)C=Cc1ccccc1"
test_value = 0


For each of the items listed, what is its Plant response rating, Barnyardgrass?
1. COC(=O)Oc1c(Cl)nn(C)c(=O)c1-c1c(C)sc2ccc(Cl)cc12
2. CC(=O)Oc1c(C)nn(C)c(=O)c1-c1ccc(Cl)c2ccccc12
3. COc1nn(C)c(=O)c(-c2c(C)sc3ccc(Cl)cc23)c1OS(C)(=O)=O
4. CC(=O)Oc1c(C)nn(C)c(=O)c1-c1c(C(F)(F)F)ccc2ccccc12
5. Cc1ccc2ccccc2c1-c1c(O)c(C)nn(C)c1=O
6. COC(=O)Oc1c(C)nn(C)c(=O)c1-c1c([N+](=O)[O-])ccc2ccccc12

1: 0; 2: 20; 3: 0; 4: 0; 5: 0; 6: 0

* * *

System: waterhemp (common waterhemp, Amaranthus rudis)
Assay: Test C greenhouse herbicide test, pre- and postemergence
Format: in vivo
Conditions: postemergence, 62 g ai/ha; scale 0 to 100, 0 no effect, 100 complete control
property_measured: Waterhemp plant response rating

Can you give me Waterhemp plant response rating for all of these, one by one?
1. Cc1ccc2sc(C)c(-c3c(O)c(C)nn(C)c3=O)c2c1
2. C#CCOC(=O)Oc1c(C)nn(C)c(=O)c1-c1c(C)sc2ccc(C)cc12
3. CCOC(=O)Oc1c(C)nn(C)c(=O)c1-c1c(C)sc2ccc(C)cc12
4. CC(=O)Oc1c(C)nn(C)c(=O)c1-c1c(C)oc2c(C)cc(C)cc12

1. 95
2. 80
3. 98
4. 5

Dear reader, for each entry below, please note its Waterhemp plant response rating.
1. CCC(=O)Oc1c(C)nn(C)c(=O)c1-c1c(C)sc2ccc(C)cc12
2. CC(=O)Oc1c(C)nn(C)c(=O)c1-c1c(C)sc2ccc(C)cc12
3. Cc1ccc2ccccc2c1-c1c(O)cnn(C)c1=O
4. CC(=O)Oc1c(C)nn(C)c(=O)c1-c1ccc(F)c2ccccc12
5. CC(=O)Oc1c(C)nn(C)c(=O)c1-c1c(C)sc2c(C)cc(C)cc12

85
95
75
100
60

* * *

Hi there, I'd appreciate the recorded Plant response rating, Ryegrass, Italian for every entry that follows.
Tested on: ryegrass, Italian (Italian ryegrass, Lolium multiflorum)
Assay: Test A greenhouse herbicide test, pre- and postemergence
Assay type: in vivo
Conditions: Preemergence, 500 g ai/ha; 0 to 100 scale, 0 no effect, 100 complete control
Answers are plain numbers.

Would you please look over these solved cases?
[[record]]
molecule = "CCc1ccc2ccccc2c1-c1c(OC(=O)OC(C)C)c(C)nn(C)c1=O [Compound 39]"
tgt = "ryegrass, Italian (Italian ryegrass, Lolium multiflorum)"
test_value = 50

[[record]]
molecule = "COc1nn(C)c(=O)c(-c2c(C)sc3ccccc23)c1O [Compound 33]"
tgt = "ryegrass, Italian (Italian ryegrass, Lolium multiflorum)"
test_value = 60


List Plant response rating, Ryegrass, Italian for every entry below, keeping the order given.
1. CCC(=O)Oc1c(C)nn(C)c(=O)c1-c1c(C)sc2c(C)cc(C)cc12 [Compound 28]
2. Cc1cc(C)c2sc(C)c(-c3c(OC(=O)C(C)(C)C)c(C)nn(C)c3=O)c2c1 [Compound 43]

1. 100
2. 70

* * *

Give Foxtail, Giant plant response rating for every item shown.
System: foxtail, giant (giant foxtail, Setaria faberii)
Test: Test C greenhouse herbicide test, pre- and postemergence
Type: in vivo
Conditions: postemergence, 125 g ai/ha; scale 0 to 100, 0 no effect, 100 complete control
Answers are plain numbers.

See these solved cases before continuing.
[[record]]
chemical_smiles = "COC(=O)Oc1cnn(C)c(=O)c1-c1c(C)ccc2ccccc12"
property_measured = "Foxtail, Giant plant response rating"
test_value = 20

[[record]]
chemical_smiles = "COC(=O)Oc1c(Br)nn(C)c(=O)c1-c1c(C)ccc2ccccc12"
property_measured = "Foxtail, Giant plant response rating"
test_value = 80


# batch size: 2; output Foxtail, Giant plant response rating per entry
1. Cc1ccc2ccccc2c1-c1c(OC(=O)N2CCOCC2)c(Br)nn(C)c1=O
2. COC(=O)Oc1c(C)nn(C)c(=O)c1-c1c([N+](=O)[O-])ccc2ccccc12

[35, 15]

* * *

Tested on: ragweed (common ragweed, Ambrosia elatior)
Experiment: Test E greenhouse herbicide test, pre- and postemergence
Type: in vivo
Settings: 125 g ai/ha, Postemergence; scale 0 to 100 (0 no effect, 100 complete control)
property_measured: Plant response rating, Ragweed
One number for each entry.

Below are worked cases with known answers.
[[record]]
chemical_smiles = "COC(=O)Oc1c(C)nn(C)c(=O)c1-c1c(C)sc2c(C)cc(C)cc12"
test_value = 85

[[record]]
chemical_smiles = "CCC(=O)Oc1c(C)nn(C)c(=O)c1-c1c(C)sc2c(C)cc(C)cc12"
test_value = 70

[[record]]
chemical_smiles = "CSCC(=O)Oc1c(C)nn(C)c(=O)c1-c1cccc2ccccc12"
test_value = 90

[[record]]
chemical_smiles = "Cc1cc(C)c2sc(C)c(-c3c(OC(=O)OCCCl)c(C)nn(C)c3=O)c2c1"
test_value = 60


As a next step, examine the compound that follows.
Plant response rating, Ragweed lookup needed for `COc1nn(C)c(=O)c(-c2c(C)sc3ccc(Cl)cc23)c1O` , thanks.
90

* * *

Can you tell me Plant response rating, Wheat, Winter for the items I'm about to list?
Tested on: wheat, winter (winter wheat, Triticum aestivum)
Experiment: Test D controlled growth environment herbicide test, pre- and postemergence
Type: in vivo
Details: postemergence, 62 g ai/ha; scale 0 to 100, 0 no effect, 100 complete control
Answers are plain numbers.

Consider the worked cases shown below.
[[record]]
compound = "CC(=O)Oc1c(Br)nn(C)c(=O)c1-c1c(C)ccc2ccccc12 [Compound 129]"
property_measured = "Plant response rating, Wheat, Winter"
test_value = 35

[[record]]
compound = "CCC(=O)Oc1c(C)nn(C)c(=O)c1-c1c(C)sc2ccc(C)cc12 [Compound 42]"
property_measured = "Plant response rating, Wheat, Winter"
test_value = 5

[[record]]
compound = "Cc1ccc2sc(C)c(-c3c(O)c(C)nn(C)c3=O)c2c1 [Compound 1]"
property_measured = "Plant response rating, Wheat, Winter"
test_value = 0

[[record]]
compound = "CCOC(=O)Oc1c(C)nn(C)c(=O)c1-c1c(C)ccc2ccccc12 [Compound 73]"
property_measured = "Plant response rating, Wheat, Winter"
test_value = 35


Continue with the compound presented below.
Plant response rating, Wheat, Winter lookup needed for Cc1cc(C)c2sc(C)c(-c3c(OC(=O)OC(C)C)c(C)nn(C)c3=O)c2c1 [Compound 67] , thanks.
0
